Biological target: T1, Fc-tagged human TSLP antigen (huTSLP-Fc) (human, biotin-labeled in the blocking assays)
T1 construct: whole entry named; also called recombinant human TSLP-Fc
Assay: competition FACS: biotin-TSLP-Fc binding to CHOK1-TSLPR/IL-7R cells
pIC50: −log10 of the molar value.
assay.readout: pIC50

hu3-13 (antibody, human IgG1, kappa, V domains shown, IgG1-YTE, kappa; also called hu3VH2-H110Y + hu3VL6) VH: EVQLVQSGAEVKKPGASVKVSCKASGYTFTDDYMNWVRQAPGQRLEWMGIISPYNGGTSYNQKFKGRVTLTVDKSASTAYMELSSLRSEDTAVYYCAREDYDYDGYAMDYWGQGTTVTVSS VL: EIVLTQSPATLSLSPGERATLSCRASSSVSYMHWYQQKPGQAPRPWIYATSNLASGVPARFSGSGSGTSYTLTISRLEPEDFAVYYCQQSDSGREFGGGTKVEIKR    9.88
